Assay Summary: changes in parasitized red cell lysis, either direction – P. falciparum Indochina, OD700, 3 h, PSAC antagonist project, primary screen (AID 1156)
Test Context: P. falciparum-infected erythrocytes, osmotic lysis, higher = more signal, called active from +8 up or from −8 down
Entries and their z-score
Value Kind: z-score

Molecule	Value Measured
COCCOC(=O)N1C(=O)[C@@]2(c3cc(C#CCC(C(=O)OC)C(=O)OC)ccc31)[C@H](c1ccccc1OCCO)N1[C@H](c3ccccc3)[C@H](c3ccccc3)OC(=O)[C@H]1[C@@H]2C(=O)Nc1nc2ccccc2s1	0.444
Cc1ccc(S(=O)(=O)N2CC(C(=O)O)=CCC2c2ccccc2)cc1 (centres undefined)	1.13
CC(C)OC(=O)C1=CCC(c2cccc(Cl)c2)O1 (centres undefined)	0.751
COc1ccc([Si](C)(C)[C@H]2[C@H](CCO)O[C@@]3(C(=O)N(Cc4ccccc4)c4ccc(N5C(=O)COc6ccccc65)cc43)[C@@H]2C)cc1	1.3
Cc1ccccc1/C=C/C=O	-0.0758
O=C1C[C@@](C(=O)O)(c2ccc([N+](=O)[O-])cc2)[C@@H](c2ccc(CO)cc2I)N1CC12CC3CC(CC(C3)C1)C2	3.79
C=CCOC(=O)[C@@H]1[C@H]2C(=O)O[C@H](c3ccccc3)[C@H](c3ccccc3)N2[C@H](c2ccc(OCCOC(=O)[C@H]3C[C@H]4C(=O)N[C@@H](CC(C)C)C(=O)N4[C@H]3c3cccc(OCCO)c3)cc2)[C@@]12C(=O)Nc1ccc(I)cc12	0.789
CN(C)CCCC[C@@H]1NC(=O)[C@@H]2C[C@H](C(=O)NCCCCCCN)[C@H](c3ccc(O)cc3)N2C1=O	1.28
C=CCCN(CC#C[C@H]1Oc2ccccc2S(=O)(=O)N2CCC[C@@H]12)S(=O)(=O)c1ccc(C)cc1	0.123
COCCn1c(C(=O)N2CCCC2)cc2c1C[C@H]1CN(C(=O)c3ccccc3)[C@@](Cc3ccc(OC)cc3)(C(=O)OC)[C@@H]21	-0.778
C=C(COC)C(=O)CC[C@@H](OC(=O)c1ccccc1-c1ccccc1C(=O)O)c1ccc(CO)o1	-2.11
C=C(CCCC)C(=O)CC[C@H](OC(=O)c1ccccc1-c1ccccc1C(=O)O)c1ccc(CO)o1	1.2
COCCOC(=O)N1C(=O)[C@@]2(c3cc(C#CCC(C(=O)OC)C(=O)OC)ccc31)[C@H](c1ccc(OCCO)cc1)N1[C@H](c3ccccc3)[C@H](c3ccccc3)OC(=O)[C@H]1[C@@H]2C(=O)NC[C@H](O)c1ccccc1	1.69
COC(=O)[C@@]1(Cc2ccc(OC)cc2)[C@H]2c3cc(C(=O)N(C)C)n(Cc4ccc(OC)c(OC)c4)c3C[C@H]2CN1C(=O)c1ccccc1	0.804

---

Measured composite z-score, listed per entry for reference.
Assayed Target: Torsin-1A (Homo sapiens)
Assay Summary: TOR1A wild-type binding on microarray – cell lysate, small-molecule microarray, lysate, 635/667 nm, primary screen (AID 1149)
Test Context: COS7 hTOR1A-WT lysate, 635 nm fluorescence, higher = more signal

Compound	Assayed Target	composite z-score
CC(C)N1C(=O)c2ccccc2[C@](C)(C(=O)NCCCN(C)C)[C@@H]1c1ccc(CO)cc1	Torsin-1A (Homo sapiens)	3.98
C=CCNC(=O)[C@H]1[C@@H]2C(=O)O[C@@H](c3ccccc3)[C@@H](c3ccccc3)N2[C@@H](c2ccc(OCCO)cc2)[C@]12C(=O)N(C(=O)OCCOC)c1ccc(C#CC3(O)CCCCCC3)cc12	Torsin-1A (Homo sapiens)	1.79
COCCn1c(C(=O)N(C)C)cc2c1C[C@H]1CN(C(=O)c3ccccc3)[C@@](Cc3ccc(F)cc3)(C(=O)OC)[C@@H]21	Torsin-1A (Homo sapiens)	0.249
C=CCC(OC(C)=O)[C@@H]1[C@@H](N(Cc2cc3ccccc3o2)C(=O)c2ccc(C)cc2)c2cc(OCCCO)ccc2N1C(=O)c1ccc(-c2ccccc2)cc1 (stereo partly drawn)	Torsin-1A (Homo sapiens)	0.308
Cc1ccccc1/C=C/C=O	Torsin-1A (Homo sapiens)	-1.41
CN1C(=O)C2C=CC(C(O)C3=C[C@H]4C[C@@H](C3)C4(C)C)N(Nc3ccc([N+](=O)[O-])cc3[N+](=O)[O-])C2C1=O (stereo partly drawn)	Torsin-1A (Homo sapiens)	0.124
C=CC[C@]1(C(=O)NCCN2CCOCC2)N=C(c2ccc(OCCCO)cc2)O[C@H]1c1ccccc1N=[N+]=[N-]	Torsin-1A (Homo sapiens)	0.17
O=S(=O)(NCCCO)c1ccc(Br)cc1	Torsin-1A (Homo sapiens)	0.729

---

Catalogue of composite z-score values
Assayed Target: Calmodulin-1 (Homo sapiens)
Assay Summary: small molecules binding calmodulin-1 with EGTA – biochemical, small-molecule microarray, Cy5-labelled CALM1, profiling panel (AID 1111);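 note: labelled calmodulin applied in Tris saline Tween buffer holding calcium plus EGTA and DTT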
Test Context: Cy5-CALM1 binding fluorescence, higher = more signal

Compound	composite z-score
COCC1=C([C@H](O)CCc2ccccc2)[C@H](CO)[C@@H]2C(=O)N(Cc3ccccc3)C(=O)[C@@H]2C1	-0.519
CC(C)C(=C=CC[C@H](O)c1ccccc1OCCO)CCO	-0.274
[N-]=[N+]=NCc1ccccc1C[C@]1(C(N)=O)N=C(c2ccc(OCCCO)cc2)O[C@H]1c1ccccc1N=[N+]=[N-]	1.18
[N-]=[N+]=Nc1ccccc1[C@@H]1OC(c2ccc(OCCCO)cc2)=N[C@]1(CCS(=O)(=O)c1ccccc1)C(=O)N1CCCCC1	2.16
CC(C)N1C(=O)c2ccccc2[C@](C)(C(=O)NCCCN(C)C)[C@@H]1c1ccc(CO)cc1	0.0958
C=CCN1Cc2ccccc2C[C@@]2(COC(c3ccc(OCCCO)cc3)=N2)C1=O	0.175
C=CC[C@]1(C(=O)NCCN2CCOCC2)N=C(c2ccc(OCCCO)cc2)O[C@H]1c1ccccc1N=[N+]=[N-]	1.34
C=CCC(OC(C)=O)[C@@H]1[C@@H](N(Cc2ccc(-c3ccccc3)cc2)C(=O)c2ccc(C)cc2)c2cc(OCCCO)ccc2N1C(=O)Cc1ccc(OC)cc1 (stereo partly drawn)	-0.0181

---

System: Fibrinogen (Alexa647-labelled)
Assay Summary: Alexa647-fibrinogen binding to printed small molecules – biochemical, small-molecule microarray, 635/667 nm fluorescence, artefact control for SMM control-protein annotation, profiling panel (AID 1131);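 note: z-score merges 667 nm fluorescence with per-spot signal-to-noise over triplicate slides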
Test Context: fibrinogen-A647 binding fluorescence, higher = more signal
Use Satisfied when the recorded composite z-score is no lower than 0.7; use Not satisfied when it is lower.

Compound	Label Value
COc1ccc([Si](C)(C)[C@H]2[C@H](CC(=O)N3CCC[C@H]3CO)O[C@@]3(C(=O)N(Cc4cccc(N5CCC5=O)c4)c4ccccc43)[C@@H]2C)cc1	Satisfied
CC1(C)C(=O)C(c2ccccc2)=C2CN3C(=O)N(CCc4ccccc4)C(=O)C3(Cc3ccccc3)C=C21 (stereo not given)	Not satisfied
CN1C(=O)C2C=CC(C(O)C(c3ccccc3)c3ccccc3)N(Nc3ccccc3)C2C1=O (stereo not given)	Satisfied
O=C1C2C=CC(C(O)CCc3ccccc3)N(Nc3ccccc3)C2C(=O)N1c1ccccc1 (stereo not given)	Satisfied
C=CCOC(=O)[C@H]1[C@@H]2C(=O)O[C@@H](c3ccccc3)[C@@H](c3ccccc3)N2[C@@H](c2ccc(OCCOC(=O)[C@H]3C[C@H]4C(=O)N[C@@H](CCCC[N+](C)(C)C)C(=O)N4[C@H]3c3ccc(O)cc3)cc2)[C@]12C(=O)Nc1ccccc12	Not satisfied

---

This listing pairs compounds with measured composite z-score.
Test system: XIP peptide (Xip251-270) binding
Assay Summary: XIP fragment 251-270 binding compounds – biochemical, small-molecule microarray, fluorescence 635/667 nm, 0.1 µg/mL protein, primary screen (AID 1182)
Test Context: fluorescent protein binding, 635 nm, higher = more signal, called active from +8 up or from −8 down
Value Kind: composite z-score

Compound	Value Measured
C=C(/C(=C/C[C@@H](OC(C)=O)c1ccc(CO)o1)c1cnc2ccccc2c1)C(C)C	0.64
O=C1C2C=CC(C(O)c3ccc(-c4ccccc4)s3)N(Nc3ccccc3F)C2C(=O)N1c1ccccc1 (centres undefined)	0.251
CO[C@H]1O[C@H](CO)[C@@H](OC(=O)Nc2cccc(F)c2)[C@H](OC(=O)Nc2ccccc2-c2ccccc2)[C@@H]1OC(=O)Nc1ccccc1-c1ccccc1	1.37
COc1ccc([Si](C)(C)[C@@H]2[C@@H](CCO)O[C@]3(C(=O)N(Cc4ccccc4)c4ccc(N(C=O)c5ccccc5)cc43)[C@H]2C)cc1	0.581
C=CCOC(=O)[C@@H]1[C@H]2C(=O)O[C@H](c3ccccc3)[C@H](c3ccccc3)N2[C@H](c2ccc(OCCOC(=O)[C@H]3C[C@H]4C(=O)N[C@@H](CCCC[N+](C)(C)C)C(=O)N4[C@H]3c3cccc(OCCO)c3)cc2)[C@@]12C(=O)Nc1ccc(I)cc12	1.31
CCN(CC)c1ccc(N2CC=CC34O[C@@H]5/C=C\CCC(C)OC(=O)C5[C@H]3C(=O)N(CCCCCCO)[C@@H]4C2=O)cc1 (some centres undefined)	0.76
CS(=O)(=O)CCOC(=O)C1=CC(c2ccc(CO)cc2)=CC(c2cccs2)N(Cc2cccc(OC(F)(F)F)c2)C=C1C(=O)OCCS(C)(=O)=O (centres undefined)	0.276
C=C(C(=O)CC[C@@H](OC(C)=O)c1ccc(OCCO)cc1)C(C)C	0.564
CC(C)NC(=O)[C@@H]1c2ccccc2C(=O)N(C2CCCCC2)[C@H]1c1ccc(CO)cc1	0.457
CCOC(=O)C1=CC[C@@H](c2ccccc2)N(S(=O)(=O)c2ccc(C)cc2)[C@H]1c1ccc(C#N)cc1	0.432
Cc1cccc(/C=C/C=O)c1	0.43
O=C(CS)NCCCCCNC(=O)[C@H]1C[C@H]2C(=O)N[C@@H](Cc3ccccc3)C(=O)N2[C@H]1c1cccc(OCCO)c1	0.296
COCCOC(=O)N1C(=O)[C@@]2(c3cc(C#CC4(O)CCCCCC4)ccc31)[C@H](c1ccc(O)cc1)N1[C@H](c3ccccc3)[C@H](c3ccccc3)OC(=O)[C@H]1[C@@H]2C(=O)N1CCc2cc(OC)c(OC)cc2C1	-0.455
COCCCNC(=O)[C@@]1(C)c2ccccc2C(=O)N(Cc2ccccc2)[C@H]1c1ccc(CO)cc1	0.132
